Hey, just so you know, these numbers are from patent US20090197906A1.

- Tested on: NCI-H446
- Procedure details: SRB (sulforhodamine B) cell proliferation assay
- Assay type: cell-based, human
- Measurement parameters: NCI-H446, viability 72 h, mean +/− SEM

Given smiles | Target desc | Unit text | IC50
CS(=O)(=O)[O-].Cc1c2cc[n+](CCN3CCCCC3)cc2c(C)c2c1[nH]c1ccc(O)cc12 | NCI-H446 | µM | 22.4

---

- System: PANC-1
- Procedure details: SRB (sulforhodamine B) cell proliferation assay
- Type: cell-based, human
- Measurement parameters: Homo sapiens; PANC-1 (Example 11); read-out: IC50 (SRB Test-72 h)
pIC50: −log10 of the molar value.

Compound | Target desc | pIC50
Cc1c2cc[n+](CCN3CCCCC3)cc2c(C)c2c1[nH]c1ccc(O)cc12 [Bimesylate] | PANC-1 | 4.42
